Test: physchem
Format: physicochemical
Conditions: 48 hrs.; 10 μg/ml in dimethylsulfoxide/physiological saline; read-out: Percentage remainder
endpoint.label: remaining at 48 h (%)
Field: numeric (%). Do not append units.

molecule: CCCCCCCCCCCC(=O)Oc1c2c(c(OC(=O)CCCCCCCCCCC)c3c1C(=O)C1(CCc4cc5cc(CCCCC)[nH]c(=O)c5c(O)c41)C3=O)C(=O)C(OC)=CC2=O (stereo not shown) [Compound 21]
value.units: %
remaining at 48 h: 80.5
--
molecule: C/C=C/C=C/c1cc2cc3c(c(O)c2c(=O)[nH]1)C1(CC3)C(=O)c2c(O)c3c(c(O)c2C1=O)C(=O)C(OC)=CC3=O (stereo not shown) [Fredericamycin A]
value.units: %
remaining at 48 h: 27.3
--
molecule: CCCCCc1cc2cc3c(c(O)c2c(=O)[nH]1)C1(CC3)C(=O)c2c(c(OC(C)=O)c3c(OC(C)=O)c(OC)cc(OC(C)=O)c3c2OC(C)=O)C1=O (stereo not shown) [Compound 12]
value.units: %
remaining at 48 h: 95.7

Next molecule, please.
The molecule C/C=C/C=C/c1cc2cc3c(c(O)c2c(=O)[nH]1)C1(CC3)C(=O)c2c(OC(=O)CCCCC)c3c(c(OC(=O)CCCCC)c2C1=O)C(=O)C(OC)=CC3=O (stereo not shown) [Compound 5] showed remaining at 48 h equal to 57.8

====

Test system: Ehrlich carcinoma
Assay: Antitumor effect, survival of tumor-inoculated mice
Format: in vivo, ICR mice
Conditions: Mus musculus, ip, 240 h, 2.0 mg/kg/day, intraperitoneally, once a day for 10 days, read-out: percentage of mean survival time of test and control animals
endpoint.label: response vs control in vivo at 2 mg/kg/day

For orientation, consider the following solved cases.
compound: C/C=C/C=C/c1cc2cc3c(c(O)c2c(=O)[nH]1)C1(CC3)C(=O)c2c(OC(=O)CC(C)C)c3c(c(OC(=O)CC(C)C)c2C1=O)C(=O)C(OC)=CC3=O (stereo not drawn) [Compound 2, Fredericamycin A diisovalerate]
measurement: > 229%
//
compound: C/C=C/C=C/c1cc2cc3c(c(O)c2c(=O)[nH]1)C1(CC3)C(=O)c2c(OC(=O)c3ccc(Cl)cc3)c3c(c(OC(=O)c4ccc(Cl)cc4)c2C1=O)C(=O)C(OC)=CC3=O (stereo not drawn) [Compound 11]
measurement: > 260%

Next compound, please.
The compound C/C=C/C=C/c1cc2cc3c(c(O)c2c(=O)[nH]1)C1(CC3)C(=O)c2c(OC(=O)c3ccc(OC)cc3)c3c(c(OC(=O)c4ccc(OC)cc4)c2C1=O)C(=O)C(OC)=CC3=O (stereo not drawn) [Compound 10] showed response vs control in vivo at 2 mg/kg/day equal to > 202%
